Consider the following compounds; for each one, report its inhibition at 10 µM.
- target_under_test: NA transporter (Rattus norvegicus, UniProt Q63380)
- Construct: from tissue; host or cells: rat brain synaptosomes (P2 fraction) from hypothalamus
- Sequence (Q63380 1-617): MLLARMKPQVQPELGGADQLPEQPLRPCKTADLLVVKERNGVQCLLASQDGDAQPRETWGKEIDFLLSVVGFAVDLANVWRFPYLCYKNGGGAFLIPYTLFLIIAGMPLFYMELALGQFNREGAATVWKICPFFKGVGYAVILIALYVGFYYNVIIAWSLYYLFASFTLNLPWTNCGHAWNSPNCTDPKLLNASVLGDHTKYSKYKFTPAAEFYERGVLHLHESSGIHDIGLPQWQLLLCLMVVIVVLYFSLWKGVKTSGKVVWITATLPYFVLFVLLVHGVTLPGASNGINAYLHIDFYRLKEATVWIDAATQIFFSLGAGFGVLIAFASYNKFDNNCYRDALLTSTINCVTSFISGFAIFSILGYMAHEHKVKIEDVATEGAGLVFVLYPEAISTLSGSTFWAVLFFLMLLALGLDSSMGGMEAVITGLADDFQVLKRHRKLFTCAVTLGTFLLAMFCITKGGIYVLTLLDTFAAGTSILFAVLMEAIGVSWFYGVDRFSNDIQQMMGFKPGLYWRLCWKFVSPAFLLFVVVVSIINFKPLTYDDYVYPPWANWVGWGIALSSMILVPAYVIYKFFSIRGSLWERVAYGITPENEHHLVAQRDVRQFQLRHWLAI
- assay_method_text: Inhibition of noradrenaline uptake in rat brain synaptosomes
- Assay type: biochemical
- condition_info: 10 μM; rat synaptosomes (hypothalamus), [3H]-NA; read-out: % Inhibition of NA uptake [10 μM]
Write the figure, then the unit, nothing else.

Solved cases below.
# compound, test_result
rows = [
    ("CC(C(=O)Nc1nc2c(s1)CCCC2C(=O)NCCN(C)C)c1ccccc1 (stereo not drawn)", "71%"),
    ("CN(C)c1ccc(CNC(=O)C2CCCc3sc(NC(=O)c4ccco4)nc32)cc1 (stereo not drawn)", "72%"),
]

Notebook: CC(C(=O)Nc1nc2c(s1)CCCC2C(=O)NCCC1CCCN1C)c1ccccc1 (stereo not drawn) , inhibition at 10 µM read as 60%
